B1: RHOBTB3 (parent)
chain: QLQSMPSRELASMNLDIVDLLKKA

variants of: B1; test: protein stability index of a GFP-peptide fusion (GPS, HEK-293T) (PSI 1-6); higher = more stable; details: c terminus: a fixed tail appended;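 note: lentivirally expressed fusions sorted by FACS into six bins by GFP to DsRed ratio, PSI derived from sequencing read proportions per bin multiplied by bin number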
QUANTITY MEASURED: protein stability index
One number for each entry.

[
  {
    "SEQUENCE CHANGE": "L15I",
    "protein stability index": 3.66
  },
  {
    "SEQUENCE CHANGE": "V18E",
    "protein stability index": 4.19
  },
  {
    "SEQUENCE CHANGE": "A24W",
    "protein stability index": 4.13
  },
  {
    "SEQUENCE CHANGE": "L15P",
    "protein stability index": 4.48
  },
  {
    "SEQUENCE CHANGE": "K22T",
    "protein stability index": 3.74
  },
  {
    "SEQUENCE CHANGE": "E9D",
    "protein stability index": 2.63
  },
  {
    "SEQUENCE CHANGE": "I17D",
    "protein stability index": 4.23
  },
  {
    "SEQUENCE CHANGE": "M13S",
    "protein stability index": 3.35
  }
]

// input: 3 variants below; output: protein stability index for each
1. I17G
2. M5V
3. M5R

OUT:
3.46
3.32
3.46

The values you see were collected from the supplement of paper PMC10567573.
